- protocol: Dynamic vapor sorption (DVS), hygroscopicity
- Format: physicochemical
- conditionSummary: DVS, 25° C., 0-90% RH
attributeMeasured: Hygroscopicity (0-90% RH) (%)

P: CC(C)c1nc(-c2cnc(N)c(OC(F)(F)F)c2)cn1C12CC(N3CCOCC3)(C1)C2.O=C(O)CCC(=O)O [Example 10]
Q: CC(C)c1nc(-c2cnc(N)c(OC(F)(F)F)c2)cn1C12CC(N3CCOCC3)(C1)C2 [Example 1]
Data request: Between these two entries, P and Q , state which has the higher Hygroscopicity (0-90% RH). // return label of chosen record
Data returned: Q
(Q: 2.44%, P: 0.3%)

a: CC(C)c1nc(-c2cnc(N)c(OC(F)(F)F)c2)cn1C12CC(N3CCOCC3)(C1)C2.O=C(O)/C=C\C(=O)O [Example 9]
b: CC(C)c1nc(-c2cnc(N)c(OC(F)(F)F)c2)cn1C12CC(N3CCOCC3)(C1)C2.O=C(O)/C=C/C(=O)O [Example 11]
Data request: Returns: the argument ( a or b ) having the larger Hygroscopicity (0-90% RH). Write the label of whichever entry you select.
Data returned: b

====

- protocol: Solubility of hydrogen fumarate salt 11 (1000 mg scale-up batch)
- Format: physicochemical
- conditionSummary: aqueous with cosolvent or surfactant or cyclodextrin; 1/1 (v/v) Acetone/H2O, 50° C.
attributeMeasured: solubility

Data request: Requested field: solubility. Item: CC(C)c1nc(-c2cnc(N)c(OC(F)(F)F)c2)cn1C12CC(N3CCOCC3)(C1)C2.O=C(O)/C=C/C(=O)O [Example 11]
Data returned: 50 to 100 mg/mL

====

- protocol: Solubility of hydrogen fumarate salt 11 (1000 mg scale-up batch)
- Type: physicochemical
- conditionSummary: aqueous with cosolvent or surfactant or cyclodextrin; 1/1 (v/v) EtOH/H2O, RT
attributeMeasured: solubility

Data request: Would you mind telling me what solubility value was observed for CC(C)c1nc(-c2cnc(N)c(OC(F)(F)F)c2)cn1C12CC(N3CCOCC3)(C1)C2.O=C(O)/C=C/C(=O)O ?
Data returned: 20 to 33 mg/mL

====

- protocol: Solubility of hydrogen fumarate salt 11 (1000 mg scale-up batch)
- Assay type: physicochemical
- conditionSummary: organic solvent or mixture; DCM, 50° C.
attributeMeasured: solubility

Data request: Quick check: solubility of CC(C)c1nc(-c2cnc(N)c(OC(F)(F)F)c2)cn1C12CC(N3CCOCC3)(C1)C2.O=C(O)/C=C/C(=O)O [Example 11] ?
Data returned: < 10000 µg/mL

====

- protocol: Solubility of the Example 1 compound in organic solvents
- Assay type: physicochemical
- conditionSummary: aqueous with cosolvent or surfactant or cyclodextrin, thermodynamic from solid; 1/1 (v/v) Acetone/H2O, 50° C.
attributeMeasured: solubility

Data request: What value of measured solubility is listed for CC(C)c1nc(-c2cnc(N)c(OC(F)(F)F)c2)cn1C12CC(N3CCOCC3)(C1)C2 ?
Data returned: < 50 mg/mL

====

- protocol: Solubility of the Example 1 compound in organic solvents
- Type: physicochemical
- conditionSummary: organic solvent or mixture, thermodynamic from solid; EtOH, 50° C.
attributeMeasured: solubility

Data request: Looking for the measured solubility of CC(C)c1nc(-c2cnc(N)c(OC(F)(F)F)c2)cn1C12CC(N3CCOCC3)(C1)C2 , can you help?
Data returned: > 50 mg/mL
